Hello, the source for this data is patent EP0450936A1, in case you need it.

- assay summary: detection of avermectin in mouse serum by competitive liquid phase RIA after intraperitoneal injection
- Format: in vivo, BALB/c mice
- measurement context: mouse, serum, 10 mg/kg; 30 min after 10 mg per Kg IP in sesame oil; corrected for volume (50 µl) and dilution (1:10)

>  <compound>
CCC(C)[C@H]1O[C@]2(C=C[C@@H]1C)C[C@@H]1C[C@@H](C/C=C(\C)[C@@H](O[C@H]3C[C@H](OC)[C@@H](O[C@H]4C[C@H](OC)[C@@H](O)[C@H](C)O4)[C@H](C)O3)[C@@H](C)/C=C/C=C3\CO[C@@H]4[C@H](O)C(C)=C[C@@H](C(=O)O1)[C@]34O)O2 (stereo partly shown) [B1a, avermectin B1a]

>  <concentration at 0.5 h [ng/mL]>
2600

$$$$
